Test system: KM-20L2
Experimental Protocol: NCI tumour cell line growth inhibition, 48 h
Activity calls are given as the source filed them. No stated cut-off is given here; in the data, active = GI50 up to about 1.1 µM and inactive = higher.
One label from this list, please: active, inactive

Illustrative cases are given below, each with its answer.
1) CN(C)CCC1(C2=CCCC2)CC/C(=C\c2ccccc2)C1=O (configuration not stated) ... inactive
2) COC(=O)C#CC(N)=O ... inactive
3) CC(SC1=CC(=O)c2c(O)ccc(O)c2C1=O)C(=O)O (configuration not stated) ... inactive
4) CC(=O)Nc1cccc2[nH]c3ccccc3c(=O)c12 ... inactive
5) O=C(c1ccc(Cl)cc1)N(C(=S)N1CCN(c2ccccn2)CC1)C1CCCCC1 ... inactive

# fetch the recorded call for Oc1nc(CC(O)c2ccc(Cl)c(Cl)c2)cc(-c2ccccc2)n1 (configuration not stated) here
inactive

# fetch the recorded call for COC(=O)c1ccc(/C=C/S(=O)(=O)c2ccccc2)cc1 here
inactive

# fetch the recorded call for COC(=O)C1=C(C)N(NC(=O)Nc2ccccc2)C2(N)N(NC(=O)Nc3ccccc3)C(C)=C(C(=O)OC)C12C(=O)OC (configuration not stated) here
inactive

# fetch the recorded call for CCCCCC[N+](C)(C)Cc1ccc(C[N+](C)(C)CCCCCC)cc1 here
inactive

# fetch the recorded call for Nc1cc(O)nc(SC2=NC(N)CC(O)C2)n1 (configuration not stated) here
inactive

# fetch the recorded call for CC1=C(C(=O)Nc2ccccc2C)C(c2ccc(Cl)c(Cl)c2)C(C(=O)Nc2ccccc2C)=C(C)N1 here
inactive

# fetch the recorded call for O=C(O)C1NCCc2c1[nH]c1ccccc21 (configuration not stated) here
inactive

# fetch the recorded call for COc1cc(/C=C2/C(=O)NC(Cc3cc(OC)c(OC)c(C)c3OC)C(=O)N2Cc2ccccc2)c(OC)c(C)c1OC (configuration not stated) here
inactive

# fetch the recorded call for NC(=O)c1[nH]nc(C2OC(CO)C(O)C2O)c1O (configuration not stated) here
inactive

# fetch the recorded call for NC(=O)c1ccccc1NC(=O)C(=O)Nc1n[nH]c(N)n1 here
inactive

# fetch the recorded call for COC(=O)C1[C@@H](C(=O)OC)C12C=Cc1ccccc1C=C2 (some centres not stated) here
inactive

---

Entries annotated with measured GI50
Tested on: DLD-1
Experimental Protocol: NCI tumour cell line growth inhibition, 48 h
Active and inactive are the calls of the source. Rule as the data show it: active = GI50 up to about 1.1 µM and inactive = higher.

// below: answered compounds
1. Oc1nc(CC(O)c2ccc(Cl)c(Cl)c2)cc(-c2ccccc2)n1 (configuration not stated) ... > 100 µM (inactive)
2. CN(C)CCC1(C2=CCCC2)CC/C(=C\c2ccccc2)C1=O (configuration not stated) ... 17.3 µM (inactive)
3. CC1NC(=O)C2=C1C(N)=NC(=O)C2 (configuration not stated) ... > 100 µM (inactive)
4. CC(SC1=CC(=O)c2c(O)ccc(O)c2C1=O)C(=O)O (configuration not stated) ... > 39.8 µM (inactive)
5. O=C1c2ccccc2C(=O)c2sc(Nc3ccc([N+](=O)[O-])cc3)nc21 ... 4.19 µM (inactive)
6. O=C(O)C1NCCc2c1[nH]c1ccccc21 (configuration not stated) ... > 100 µM (inactive)

Now turn to the next compound.
Assign GI50 to the following record: Cc1cccc(NC(=O)C(=O)C2C(=O)NC(=O)NC2=O)c1C
> 100 µM (inactive)

---

System: OVCAR-3
Experimental Protocol: NCI tumour cell line growth inhibition, 48 h
Active and inactive are the calls of the source. Cut-off read from the data, not from the text of the source: active = GI50 up to about 1.1 µM and inactive = higher.
One label from this list, please: 1 = active, 0 = inactive

1) O=C(O)c1cccc(C(=O)O)c1[S+]([O-])Cc1ccccc1 (stereo not drawn) ... 0
2) CC(C)(O)/C=C/C(=O)[C@](C)(O)[C@H]1[C@H](O)C[C@@]2(C)[C@@H]3CC=C4[C@@H](C[C@H](O)C(=O)C4(C)C)[C@]3(C)C(=O)C[C@]12C ... 1

# fetch the recorded call for COC(=O)C1=C(C)N(NC(=O)Nc2ccccc2)C2(N)N(NC(=O)Nc3ccccc3)C(C)=C(C(=O)OC)C12C(=O)OC (stereo not drawn) here
0

# fetch the recorded call for Nc1cc(O)nc(SC2=NC(N)CC(O)C2)n1 (stereo not drawn) here
0

# fetch the recorded call for Oc1nc(CC(O)c2ccc(Cl)c(Cl)c2)cc(-c2ccccc2)n1 (stereo not drawn) here
0
